// data source = patent US11252963B2

Tested on: Diabrotica balteata (Corn root worm)
Test: Diabrotica balteata (Corn root worm) mortality test on sprayed maize sprouts
Type: in vivo
Settings: 96 h
result type: mortality at 200 ppm

CC(C)OC(=O)N(C(=O)c1cc(-c2cnn(-c3c(OC(F)F)c(C(F)(F)C(F)(F)F)nn3C)c2)ccc1Cl)C1(C#N)CC1 [Compound 5] ... ≥ 80%
COC(=O)N(C(=O)c1cc(-c2cnn(-c3c(OC(F)F)c(C(F)(F)C(F)(F)F)nn3C)c2)cnc1Cl)C1(C#N)CC1 [Compound 17] ... ≥ 80%

Look at each compound and report its mortality at 200 ppm.
1. CCOC(=O)N(C(=O)c1cc(-c2cnn(-c3c(OC(F)F)c(C(F)(F)C(F)(F)F)nn3C)c2)ccc1Cl)C1(C#N)CC1 [Compound 6]
2. CCOC(=O)N(C(=O)c1cc(-c2cnn(-c3c(OC(F)F)c(C(F)(F)C(F)(F)F)nn3C)c2)cnc1Cl)C1(C#N)CC1 [Compound 16]
3. COC(=O)N(C(=O)c1cc(-c2cnn(-c3c(OC(F)F)c(C(F)(F)C(F)(F)F)nn3C)c2)ccc1Cl)C1(C#N)CC1 [Compound 7]

["≥ 80%", "≥ 80%", "≥ 80%"]
